- test: modulators of S6 phosphorylation in cells, primary screen, cell-based, A549, cytoblot, luminescence, serum-stimulated (AID 1158);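 note: serum-stimulated A549 lung adenocarcinoma cells; signal is phosphorylated S6 detected by cytoblot immunostaining with HRP secondary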
- experimentalConditions: A549 phospho-S6 cytoblot, 5 h, higher = more signal
observedProperty: z-score
Reply: number alone, nothing else.

A selection of reference data follows.
molecule	observedProperty	assayResult
[N-]=[N+]=NCc1ccccc1[C@H]1OC(c2ccc(OCCCO)cc2)=N[C@@]1(CCS(=O)(=O)c1ccccc1)C(=O)O	z-score	-0.497
COC(=O)C(CC#Cc1ccc2c(c1)[C@]1(C(=O)N2)[C@H](c2ccccc2OCCO)N2[C@H](c3ccccc3)[C@H](c3ccccc3)OC(=O)[C@H]2[C@@H]1C(=O)N1CCN(c2ncccn2)CC1)C(=O)OC	z-score	-0.512
COCCCNC(=O)[C@@]1(Cc2ccccc2I)c2ccccc2C(=O)N(C2CCCCC2)[C@H]1c1ccc(CO)cc1	z-score	0.453
CS(=O)(=O)CCOC(=O)C1=CC(CCCO)=CC(C2CC2)N(Cc2sc3ccccc3c2Cl)C=C1C(=O)OCCS(C)(=O)=O (stereo not given)	z-score	0.248

Turning to the following molecule.
INPUT: Fill in the blank: the reported z-score of COc1cc(Cc2cc3c(c(-c4ccccc4)n2)[Si](C(C)C)(C(C)C)OC3)cc(OC)c1OC is ____.
OUTPUT: 0.159

###

- Tested on: Human papillomavirus type 1a protein E7 (residues 44-93)
- test: HPV1a E7 fragment binders on microarrays, primary screen, biochemical, small-molecule microarray, residues 44-93, 635 nm fluorescence (AID 1108);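 note: E7 fragment applied at 1 µg/mL in TBST for 1 h at 4 C; score combines spot fluorescence with its signal to noise ratio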
- experimentalConditions: small-molecule microarray binding, fluorescence 635 nm; higher = more signal
observedProperty: composite z-score
A bare number is all that is needed in reply.

Reference set, count: 3
molecule	composite z-score
CC[C@@H](O[Si](C#C[Si](C(C)C)(C(C)C)C(C)C)(C(C)C)C(C)C)c1cn([C@H](C)c2ccccc2)nn1	0.818
CC[C@@H](O[Si](C#C[Si](C(C)C)(C(C)C)C(C)C)(C(C)C)C(C)C)c1cn([C@H](CO)Cc2ccccc2)nn1	1.02
COCCOC(=O)N1C(=O)[C@@]2(c3cc(C#CCC(C(=O)OC)C(=O)OC)ccc31)[C@H](C(=O)N1CCc3cc(OC)c(OC)cc3C1)[C@H]1C(=O)O[C@H](c3ccccc3)[C@H](c3ccccc3)N1[C@@H]2c1ccccc1OCCO	1.36

INPUT: Entry under review: O=C1NC(=O)C2C1C=CC(C(O)C1CCCCC1)N2Nc1ccccn1 (stereo not given) . Reported composite z-score?
OUTPUT: 0.657

INPUT: Dear colleague, I am looking for the recorded composite z-score of the following molecule: COC(=O)C1=CC(c2ccc(CO)cc2)=CC(C2CC2)N(Cc2cc3c(cc2Br)OCO3)C=C1C(=O)OC (stereo not given)
OUTPUT: 1.32

###

- Test system: XIP peptide (Xip251-270) binding
- test: small-molecule binders of XIP peptide, primary screen, biochemical, small-molecule microarray, fluorescence 635/667 nm, 0.1 µg/mL protein (AID 1182)
- experimentalConditions: fluorescent protein binding, 635 nm, higher = more signal, called active from +8 up or from −8 down
Reported composite z-score is given for each of the following compounds.
Give only the figure.

Check out these entries, answers already filled in.
                                   compound  assayresult
0  CCOC(=O)C1=CC[C@@H](c2ccccc2)N(S(=O)(=O)c2ccc(C)cc2)[C@@H]1C#N        0.216
1  CN1C2C=C(c3ccc(CO)cc3)C(C3C(=O)N(C(N)=O)C(=O)C32)C1C1CC1 (centres undefined)       -0.313
2  COC(=O)[C@@]1(Cc2ccc(OC)cc2)[C@@H]2[C@@H](CC(=O)[C@H]2CC(=O)C(=O)N(C)C)CN1C(=O)c1ccccc1        0.206
3  O=C1NC(=O)C2C1C=CC(C(O)C1CCCCC1)N2Nc1ccccn1 (centres undefined)       -0.275
4  CC(C)(C)OC(=O)CC[C@]1(C(=O)N2CCOCC2)COC(c2ccc(OCCCO)cc2)=N1       -0.199
5  O=C1O[C@H](c2ccccc2)[C@H](c2ccccc2)N2[C@H]1[C@@H](C(=O)O)[C@]1(C(=O)Nc3ccc(C#CC4(O)CCCCCC4)cc31)[C@H]2c1ccccc1OCCO        0.168
6  CCCCCCc1nc(Cc2cc(OC)c(OC)c(OC)c2)c(C)c2c1[Si](C(C)C)(C(C)C)OC2       -0.814
7  CC(CO)N1C(=O)[C@@H]2[C@H]3C(=O)OCC=C[C@H]3OC23C=CCN(c2ccc4ccccc4c2)C(=O)[C@@H]13 (some centres undefined)      -0.0975

INPUT: Which composite z-score is listed for COc1ccc([Si](C)(C)[C@H]2[C@H](CC(=O)N(CCO)Cc3ccccc3)O[C@@]3(C(=O)N(Cc4cccc(N5CCCCC5=O)c4)c4ccccc43)[C@@H]2C)cc1 ?
OUTPUT: 2.13

###

- test: binders of probe aHhip on microarray, primary screen, stem cell growth factor project, biochemical, small-molecule microarray, fluorescence 635/667 (AID 1087);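 note: score merges spot fluorescence at 667nm with spot signal to noise ratio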
- experimentalConditions: higher = more signal
Parameter: composite z-score. Scope: all listed entries.
Write the number on its own, no unit after it.

INPUT: Fill in: composite z-score of COC(=O)[C@@]1(Cc2ccc(F)cc2)[C@@H]2C(=CC(=O)[C@H]2CC(=O)C(=O)N2CCCC2)CN1C(=O)c1ccccc1 is ___
OUTPUT: 0.655

INPUT: Query: composite z-score; subject: C=C(CCCC)C(=O)CC[C@H](OC(=O)c1ccccc1-c1ccccc1C(=O)O)c1cccc(OCCO)c1
OUTPUT: -0.0994

INPUT: If you can, please state the reported composite z-score value of CC(C)c1ccc(NN2C(C(O)c3ccccc3)C=CC3C(=O)N(c4ccccc4)C(=O)C32)cc1 (configuration not stated) .
OUTPUT: -0.265

INPUT: Tell me the measured composite z-score of O=C1C2C=CC(C(O)C3CCCCC3)N(Nc3ccccc3F)C2C(=O)N1c1ccccc1 (configuration not stated) , please.
OUTPUT: -0.0617

INPUT: # input compound: C=CCN1C(=O)[C@@]2(O[C@@H](CCO)[C@H]([Si](C)(C)c3ccc(OC)cc3)[C@H]2C)c2cc(N3CCCCC3=O)ccc21 ; wanted: its composite z-score
OUTPUT: 0.0373

INPUT: Which composite z-score value belongs to COc1ccc(-c2cc3c(c(CCc4ccccc4)n2)[Si](C(C)C)(C(C)C)O[C@H]3c2ccccc2)cn1 ?
OUTPUT: -0.164

###

- test: CREB reporter modulators without forskolin, primary screen, cell-based, PC12, CRE-LacZ reporter, unstimulated (AID 1145)
- experimentalConditions: no forskolin, luminescence, 4.5 h, higher = more signal, called active from +8 up or from −8 down
Parameter class (string): assigned from measured z-score. Ranges: bottom end (below -0.01), midrange (-0.01 to below 2), top end (2 or more)

Example results:
                                   compound  qualitativelabel
0  COc1cc(Cc2cc3c(c(-c4ccccc4)n2)[Si](C(C)C)(C(C)C)OC3)cc(OC)c1OC        bottom end
1  CCOC(=O)C=C1C[C@@H](c2cccc([N+](=O)[O-])c2)O[C@@H](c2cccc([N+](=O)[O-])c2)O1        bottom end
2  CC1C2C(CCCO)=CC(C3C(=O)N(C)C(=O)C23)N1Cc1cccc(OC(F)(F)F)c1 (centres undefined)        bottom end
3  O=C(NCC(F)(F)F)[C@@H]1c2ccccc2C(=O)N(Cc2cc(C(F)(F)F)cc(C(F)(F)F)c2)[C@H]1c1ccc(CO)cc1          midrange
4  COC(=O)[C@@]1(Cc2ccc(F)cc2)[C@H]2c3cc(C(=O)N(C)C)n(Cc4ccc(C(F)(F)F)nc4)c3C[C@H]2CN1C(=O)c1ccccc1          midrange

INPUT: Could you place C=CC[C@H](OC(=O)Nc1ccc(SC)cc1)c1ccc(O)c(F)c1 in its proper category? Many thanks.
OUTPUT: midrange

INPUT: GET /class?item= C=C(CC1([C@@H](NP(=O)(c2ccccc2)c2ccccc2)[C@H]2C[C@@H]2CCCC)CC1)c1cccc(OC)c1
OUTPUT: midrange

INPUT: Each compound maps to one class by z-score. Which class for COC(=O)[C@]1(Cc2ccccc2CN=[N+]=[N-])N=C(c2ccc(OCCCO)cc2)O[C@@H]1c1ccccc1N=[N+]=[N-] ?
OUTPUT: top end

INPUT: Using the reported z-score, which band applies to C=CC[C@H](O)c1ccc(O)c2ccccc12 ?
OUTPUT: top end

###

Reported composite z-score by item:
- Test system: Neuregulin-1 EGF-like domain
- test: binders of neuregulin-1 EGF-like domain, primary screen, biochemical, small-molecule microarray, 635 nm fluorescence (AID 1081);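 note: binding of the protein to compounds printed on small-molecule microarray slides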
- experimentalConditions: small-molecule microarray binding, higher = more signal
Just the number, please, no unit attached.

>>> df
                          structurenotation  assayresult
0  C=CC[C@]1(C(N)=O)N=C(c2ccc(OCCCO)cc2)O[C@H]1c1ccccc1N=[N+]=[N-]         1.06
1  CCOC(=O)C1=CC[C@@H](c2ccccc2)N(S(=O)(=O)c2ccc(C)cc2)[C@@H]1C#N         1.05
2  COC(=O)[C@@]1(Cc2ccc(F)cc2)[C@H]2c3cc(C(=O)N4CCCC4)n(C[C@H](O)CO)c3C[C@H]2CN1C(=O)c1ccccc1         1.16
3  CCOC(=O)C[C@H]1[C@H](OC(=O)c2cc3ccccc3oc2=O)[C@@H](NC(=O)Cc2ccc(OC)cc2)c2cc(OCCCO)ccc2N1C(=O)Cc1ccc(OC)cc1        0.507

INPUT: // returns reported composite z-score for input [N-]=[N+]=NCc1ccccc1[C@H]1OC(c2ccc(OCCCO)cc2)=N[C@@]1(Cc1ccccc1N=[N+]=[N-])C(=O)O
OUTPUT: 1.24
